Cited source: patent US5126336A

MIC tested on E. coli 255: recorded values
MEASURED_PROPERTY: MIC (µg/mL)

>>> numeric_readout("Nc1nc(/C(=N/O)C(=O)NC2C(=O)N3C(C(=O)O)=C(/C=C/Cn4cnc5cc(O)c(O)cc54)CS[C@H]23)cs1 (stereo partly shown)")
0.8
>>> numeric_readout("Nc1nc(/C(=N/O)C(=O)NC2C(=O)N3C(C(=O)[O-])=C(/C=C/C[n+]4cc5cc(O)c(O)cc5cn4)CS[C@H]23)cs1 (stereo partly shown)")
0.2
>>> numeric_readout("CC(C)(O/N=C(\\C(=O)NC1C(=O)N2C(C(=O)O)=C(/C=C/Cn3cnc4cc(O)c(O)cc43)CS[C@H]12)c1csc(N)n1)C(=O)O (stereo partly shown)")
0.2
>>> numeric_readout("C[n+]1cn(C/C=C/C2=C(C(=O)[O-])N3C(=O)C(NC(=O)/C(=N\\OC(C)(C)C(=O)O)c4csc(N)n4)C3SC2)c2cc(O)c(O)cc21 (stereo not shown)")
0.05
>>> numeric_readout("Nc1nc(/C(=N/O)C(=O)NC2C(=O)N3C(C(=O)O)=C(/C=C/Cn4ccc5cc(=O)c(O)cc-5c4)CS[C@H]23)cs1 (stereo partly shown)")
0.4
>>> numeric_readout("CC(C)(O/N=C(\\C(=O)NC1C(=O)N2C(C(=O)[O-])=C(/C=C/C[n+]3cc4cc(O)c(O)cc4cn3)CS[C@H]12)c1csc(N)n1)C(=O)O (stereo partly shown)")
0.013
>>> numeric_readout("CO/N=C(\\C(=O)NC1C(=O)N2C(C(=O)O)=C(/C=C/Cn3cnc4cc(O)c(O)cc43)CS[C@H]12)c1csc(N)n1 (stereo partly shown)")
0.8
